target: HLA-A*03:01; test: IEDB peptide-MHC binding, purified MHC/direct/fluorescence; filed as Kd, often an IC50 or EC50 that approximates it; bounds were set here for any values at or beyond the usual limits of such assays; conditions: source organism: Camelpox virus M-96
Endpoint Name: pKd
On this scale, pKd is minus log10 of a concentration expressed in M (mol/L).

Consider the sequence "SLFTEQAFY" and give its measured pKd.
5.36

====

biological target: HLA-B*15:42; assay: IEDB peptide-MHC binding, purified MHC/competitive/fluorescence; filed as Kd, often an IC50 or EC50 that approximates it; bounds were set here for any values at or beyond the usual limits of such assays; conditions: source organism: Mycobacterium tuberculosis variant bovis BCG str. Pasteur 1173P2
Endpoint Name: Kd

What is its Kd for HLA-B*15:42? Entry: "RPRCAYLPF"
≥ 5 µM

====

target: HLA-A*30:01; experiment: IEDB peptide-MHC binding, purified MHC/competitive/fluorescence; filed as Kd, often an IC50 or EC50 that approximates it; bounds were set here for any values at or beyond the usual limits of such assays; conditions: source organism: Pseudomonas sp. MIS38
Endpoint Name: Kd

Consider the sequence "YMLKDSAPT" and give its measured Kd.
≥ 20 µM

====

biological target: HLA-A*69:01; test: IEDB peptide-MHC binding, purified MHC/direct/fluorescence; filed as Kd, often an IC50 or EC50 that approximates it; bounds were set here for any values at or beyond the usual limits of such assays; conditions: source organism: Cryptosporidium parvum
Endpoint Name: Kd (nM)
Give just the number in nM; leave the unit off.

Consider the sequence "WLPWIPQLI" and give its measured Kd.
415

====

biological target: HLA-A*32:07; assay: IEDB peptide-MHC binding, purified MHC/competitive/fluorescence; filed as Kd, often an IC50 or EC50 that approximates it; bounds were set here for any values at or beyond the usual limits of such assays; details: source organism: Crocodilepox virus
Endpoint Name: pKd
On this scale, pKd is minus log10 of a concentration expressed in M (mol/L).

Consider the sequence "RVRSMANVY" and give its measured pKd.
7.80

====

target: HLA-B*08:01; test: IEDB peptide-MHC binding, purified MHC/direct/fluorescence; filed as Kd, often an IC50 or EC50 that approximates it; bounds were set here for any values at or beyond the usual limits of such assays; conditions: source organism: Giardia lamblia ATCC 50803
pKd: −log10 of the molar value.
Attribute: pKd

IVKYKQYLK: ≤ 4.70

Below: the item to evaluate.
Consider the sequence "ASSWAPTQK" and give its measured pKd.
≤ 4.70

====

biological target: HLA-B*40:01; test: IEDB peptide-MHC binding, purified MHC/competitive/fluorescence; filed as Kd, often an IC50 or EC50 that approximates it; bounds were set here for any values at or beyond the usual limits of such assays; conditions: source organism: Escherichia coli str. K-12 substr. DH10B
pKd: −log10 of the molar value.
Endpoint Name: pKd

Consider the sequence "QVIFKCVPK" and give its measured pKd.
≤ 4.70

====

biological target: HLA-A*69:01; test: IEDB peptide-MHC binding, purified MHC/direct/fluorescence; filed as Kd, often an IC50 or EC50 that approximates it; bounds were set here for any values at or beyond the usual limits of such assays; settings: source organism: Francisella tularensis subsp. holarctica LVS
Endpoint Name: Kd

Consider the sequence "EFKRRLKDL" and give its measured Kd.
≥ 20 µM
